Values were extracted from patent US10844049B2.

Target: GLP1R (Homo sapiens)
Sequence (P43220 24-463): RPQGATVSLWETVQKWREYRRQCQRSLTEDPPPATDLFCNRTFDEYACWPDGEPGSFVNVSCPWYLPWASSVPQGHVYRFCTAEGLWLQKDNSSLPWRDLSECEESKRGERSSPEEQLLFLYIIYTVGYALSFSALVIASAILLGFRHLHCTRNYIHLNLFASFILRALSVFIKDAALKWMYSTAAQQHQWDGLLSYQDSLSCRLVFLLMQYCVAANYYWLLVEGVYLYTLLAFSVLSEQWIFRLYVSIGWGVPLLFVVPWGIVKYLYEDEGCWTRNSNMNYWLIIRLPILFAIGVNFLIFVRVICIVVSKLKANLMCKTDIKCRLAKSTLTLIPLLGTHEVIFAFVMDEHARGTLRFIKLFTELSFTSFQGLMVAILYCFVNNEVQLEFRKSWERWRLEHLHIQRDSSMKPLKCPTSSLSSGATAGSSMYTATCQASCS
Assay: GLP1R cAMP HTRF assay, HEK293/GLP-1R/CRE/Luc (HEK293T cells)
Format: cell-based
Conditions: read-out: EC50
pEC50: −log10 of the molar value.
Readout: pEC50

Worked examples follow.
{"Molecule": "O=C(O)c1ccc2nc(CN3CC4CC3CN4c3cccc(OCc4ccc(Cl)cc4F)n3)n(C[C@@H]3CCO3)c2c1 (stereo partly drawn)", "pEC50": "≥ 6.82"}
{"Molecule": "N#Cc1ccc(COc2cccc(N3CCN(Cc4nc5ccc(C(=O)O)nc5n4C[C@@H]4CCO4)CC3=O)n2)c(F)c1", "pEC50": "≥ 6.82"}

INPUT: What value of measured pEC50 is listed for O=C(O)c1ccc2nc(CN3CCN(c4cccc(OCc5ccc(C#CC6CC6)cc5F)c4)CC3)n(C[C@@H]3CCO3)c2c1 ?
OUTPUT: ≥ 6.82

INPUT: What value of measured pEC50 is listed for O=C(O)c1ccc2nc(CN3CCC(N4Cc5ccccc5N(CCc5ccc(Cl)cc5F)C4=O)CC3)n(C[C@@H]3CCO3)c2c1 ?
OUTPUT: < 6.00

INPUT: What value of measured pEC50 is listed for N#Cc1ccc(COc2ccc(F)c(C3=CCN(Cc4nc5ccc(C(=O)O)cc5n4C[C@@H]4CCO4)CC3)n2)c(F)c1 ?
OUTPUT: ≥ 7.82

INPUT: What value of measured pEC50 is listed for N#Cc1ccc(COc2cccc(N3CCC(Cc4nc5ccc(C(=O)O)c(F)c5n4C[C@@H]4CCO4)CC3)n2)c(F)c1 ?
OUTPUT: ≥ 7.82

INPUT: What value of measured pEC50 is listed for O=C(O)c1ccc2nc(CN3CC=C(c4cc(OCc5ccc(Cl)cc5F)c(F)cc4F)CC3)n(C[C@@H]3CCO3)c2c1 ?
OUTPUT: ≥ 6.00

INPUT: What value of measured pEC50 is listed for O=C(O)c1ccc2nc(CN3CC=C(c4cccc(OCc5cccc(F)c5)n4)CC3)n(C[C@@H]3CCO3)c2c1 ?
OUTPUT: ≥ 6.82

INPUT: What value of measured pEC50 is listed for O=C(O)c1cc2c(cn1)nc(CN1CC=C(c3cccc(OCc4ccc(Cl)cc4F)n3)CC1)n2C[C@@H]1CCO1 ?
OUTPUT: ≥ 7.82

###

# Bmax (POC) annotations
Biological target: UniProtKB P43220
Assay: β-Arrestin-mediated GLP1R internalization assay (PathHunter engineered U2OS cells)
Format: cell-based
Set-up: host or cells: PathHunter engineered U2OS cells
Settings: averaged Bmax, percentage of control GLP-1 (7-37), highest concentration tested
Quick note: give the figure in POC, leave out the unit.

Worked examples follow.
{"Molecule": "N#Cc1ccc(COc2cccc(C3=CCN(Cc4nc5ccc(C(=O)O)nc5n4C[C@@H]4CCO4)CC3)n2)c(F)c1 [Compound 225]", "Bmax (POC)": 24.0}
{"Molecule": "O=C(O)c1ccc2nc(CN3CC=C(c4cccc(OCc5ccc(-n6ccnc6)cc5)n4)CC3)n(C[C@@H]3CCO3)c2n1 [Compound 245]", "Bmax (POC)": 27.7}
{"Molecule": "N#Cc1ccc(COc2cncc(C3=CCN(Cc4nc5ccc(C(=O)O)cc5n4C[C@@H]4CCO4)CC3)n2)c(F)c1 [Compound 23]", "Bmax (POC)": 8.92}
{"Molecule": "O=C(O)c1ccc2nc(CN3CC=C(c4cccc(OCc5ccc(Cl)cc5F)c4)CC3)n(C[C@@H]3CCO3)c2c1F [Compound 237]", "Bmax (POC)": 17.7}
{"Molecule": "O=C(O)c1ccc2nc(CN3CC=C(c4cccc(OCc5ccc(Cl)cc5F)c4)CC3)n(C[C@@H]3CCO3)c2n1 [Compound 224]", "Bmax (POC)": 22.5}

// moving on: another record for Bmax (POC)
INPUT: What value of measured Bmax (POC) is listed for O=C(O)c1ccc2nc(CN3CC=C(c4cccc(OCc5ccc(Cl)cc5F)n4)CC3)n(C[C@@H]3CCO3)c2c1 [Compound 221] ?
OUTPUT: 30.0
